- Tested on: A549 (Lung)
- protocol_notes: Sulphorhodamine B cytotoxicity assay, A549
- Format: cell-based, human
- measurement_context: Homo sapiens, A549; SRB assay, 48 hours incubation; read-out: Human cancer cell lines IC50, A549 (Lung)
property_measured: IC50 (µM)
Give bare numbers, in µM.

Sample records with IC50:
compound: COc1cc(C2/C(=C/c3ccc(F)cc3)C(=O)c3cc(OC)c(OC)c(OC)c32)cc(OC)c1OC (stereo not drawn) [Compound 18]
observed_result: 26.9
//
compound: COc1cc(C2/C(=C/c3cccc4c3OCO4)C(=O)c3cc(OC)c(OC)c(OC)c32)cc(OC)c1OC (stereo not drawn) [Compound 17]
observed_result: 82.2
//
compound: COc1ccc(/C=C2\C(=O)c3cc(OC)c(OC)c(OC)c3C2c2cc(OC)c(OC)c(OC)c2)cc1 (stereo not drawn) [Compound 10]
observed_result: 13.4
//
compound: COc1cc(C2C(=Cc3ccccc3)C(=O)c3cc(OC)c(OC)c(OC)c32)cc(OC)c1OC (stereo not drawn) [Compound 14]
observed_result: 47.5

Turning to the following compound.
Lookup: Indicate the recorded IC50 value for this compound: COc1ccc(/C=C2\C(=O)c3cc(OC)c(OC)c(OC)c3C2c2cc(OC)c(OC)c(OC)c2)c(OC)c1 (stereo not drawn) [Compound 21]
Found: 71.6

###

- System: HeLa (Cervix)
- protocol_notes: Sulphorhodamine B cytotoxicity assay, HeLa
- Type: cell-based, human
- Design: key: Inactive: inactive, if IC50 > 100 μM
- measurement_context: SRB assay, 48 hours incubation
property_measured: Human cancer cell lines IC50, HeLa (Cervix)

molecule: COc1cc(C2/C(=C/c3cccc4c3OCO4)C(=O)c3cc(OC)c(OC)c(OC)c32)cc(OC)c1OC (stereo not drawn) [Compound 17]
observed_result: Inactive

molecule: COc1ccc(/C=C2\C(=O)c3cc(OC)c(OC)c(OC)c3C2c2cc(OC)c(OC)c(OC)c2)cc1OC (stereo not drawn) [Compound 13]
observed_result: Inactive

molecule: COc1cc(C2/C(=C/c3ccc([N+](=O)[O-])cc3)C(=O)c3cc(OC)c(OC)c(OC)c32)cc(OC)c1OC (stereo not drawn) [Compound 11]
observed_result: Inactive

###

Assign melting point to each entry below.

Guide cases for melting point, answers given:
compound: COc1cc(OC)c(OC)cc1/C=C1\C(=O)c2cc(OC)c(OC)c(OC)c2C1c1cc(OC)c(OC)c(OC)c1 (stereo not shown)
property_measured: melting point
observed_result: 203 to 205 °C

compound: COc1cc(C2/C(=C/c3cccc4c3OCO4)C(=O)c3cc(OC)c(OC)c(OC)c32)cc(OC)c1OC (stereo not shown)
property_measured: melting point
observed_result: 180 to 182 °C

compound: COc1ccc(/C=C2\C(=O)c3cc(OC)c(OC)c(OC)c3C2c2cc(OC)c(OC)c(OC)c2)c(OC)c1 (stereo not shown)
property_measured: melting point
observed_result: 191 to 192 °C

compound: COc1cc(C2/C(=C/c3ccc(OC)c(OC)c3OC)C(=O)c3cc(OC)c(OC)c(OC)c32)cc(OC)c1OC (stereo not shown)
property_measured: melting point
observed_result: 163 to 165 °C

compound: COc1cc(C2/C(=C/c3ccc([N+](=O)[O-])cc3)C(=O)c3cc(OC)c(OC)c(OC)c32)cc(OC)c1OC (stereo not shown)
property_measured: melting point
observed_result: 190 to 192 °C

compound: COc1cc(C2/C(=C/c3ccc(OCc4ccccc4)cc3)C(=O)c3cc(OC)c(OC)c(OC)c32)cc(OC)c1OC (stereo not shown)
property_measured: melting point
observed_result: 188 to 190 °C

Lookup: Consider the compound COc1ccccc1/C=C1\C(=O)c2cc(OC)c(OC)c(OC)c2C1c1cc(OC)c(OC)c(OC)c1 (stereo not shown) and give its recorded melting point.
Found: 191 to 192 °C
